test system: PXR:RXRa (NR concentration 270 nM, RXRa partner concentration 90 nM); experiment: PBM binding z-score (relative to random genomic background probes); higher = stronger binding; sequences stand for … in GC…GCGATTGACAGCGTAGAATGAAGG
Everything with PBM binding z-score lower than 0.9 is false (0); everything else, including exactly 0.9, is true (1).

Consider the following illustrative entries.
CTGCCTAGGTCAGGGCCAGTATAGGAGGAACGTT | false (0)
TGACAAAGTTCAAAGGTAACGTAAGTATCCACAC | true (1)
ATCTCTAGGTAAAGTTCAGTCAAAGATCGATAGA | true (1)
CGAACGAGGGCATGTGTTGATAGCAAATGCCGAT | false (0)
CCAGACCGGTGAGAAGGTAACTCAGCCTCGATTA | false (0)
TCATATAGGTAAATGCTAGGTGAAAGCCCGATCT | false (0)

In plain terms: is recorded PBM binding z-score at least 0.9 for GATACAGGGTCAAGGCTAGAGTACGCGTATTGAT ?
true (1)

In plain terms: is recorded PBM binding z-score at least 0.9 for TCTAGTTGGCCAAAGGTCACACACTCGAAATGCG ?
true (1)

In plain terms: is recorded PBM binding z-score at least 0.9 for ATATGTAGGTTAAGGGTCAGTCAGGTTGGTTCGC ?
true (1)

In plain terms: is recorded PBM binding z-score at least 0.9 for CGAACTATGTCATTGACAGGACAGTGAATAGTAA ?
false (0)

In plain terms: is recorded PBM binding z-score at least 0.9 for CGAACTAGGTGAAGGACAGTGAATCTCCGCACGC ?
false (0)
